# folding stability dG unfold listing for each entry below
- test method notes: folding stability dG unfold from chymotrypsin proteolysis; higher = more stable
outcome measure: folding stability dG unfold (kcal/mol)

{"sequence data": "SAGGSAGGSHRIIFRINSPGMPPRQAADRIADMLQEEHGLKIKGVDIWTYPNGSYWVTITIEPSAGGSAGGS [r12_781_TrROS]", "outcome measure": "folding stability dG unfold", "units": "kcal/mol", "meas value": 2.98}
{"sequence data": "SAMRPGDPWKPVEERKIPIRNPNNGKEIEIEVYRFKDDGMYMVSIHFPDGKSIQFMVPPGDVEEIIEQISAG [r14_240_TrROS]", "outcome measure": "folding stability dG unfold", "units": "kcal/mol", "meas value": 3.17}
{"sequence data": "SAGGSAGGIKAPDGQEYHIILFPITIPMEQKVERPMPDGDPRPETRTVSIKIPIWFAIPPGQKISAGGSAGG [r6_526_TrROS]", "outcome measure": "folding stability dG unfold", "units": "kcal/mol", "meas value": 1.5}
{"sequence data": "SAGGSAGGSAGLPPGDYRLFPFTVTITIPPIKVKDPNGDEHEIDNLEISITIYFFVPAGDSAGGSAGGSAGG [r11_907_TrROS]", "outcome measure": "folding stability dG unfold", "units": "kcal/mol", "meas value": 4.58}
{"sequence data": "SQWVIKIKFPNPDGEPVKIIFPVEEIQEIFKEEHGEPSSPQEFADRLAKHHPNVDVEIMPLDDMPPEQLNSA [r9_1085_TrROS]", "outcome measure": "folding stability dG unfold", "units": "kcal/mol", "meas value": 0.42}
{"sequence data": "SGMPPVSVSSIEPVSVSPDGTSRTFRAPLTTPSGEPVTYTGPVSEILKRVEEEGWGPTASAPGGLVEVRDSA [r9_1078_JUSTAS]", "outcome measure": "folding stability dG unfold", "units": "kcal/mol", "meas value": -0.368}
{"sequence data": "SAGGLLVADEAGVPLSPVPPVPPIPVQVTFPDGTKVTIEYYPGLNEVKVEYEGDDPAKVAEIVKEILKSAGG [r13_701_JUSTAS]", "outcome measure": "folding stability dG unfold", "units": "kcal/mol", "meas value": 0.444}
